What follows is a collection of IC50 values obtained with PUF60 UHM (Homo sapiens, UniProt Q9UHX1).
Sequence (Q9UHX1 462-549 limits assumed): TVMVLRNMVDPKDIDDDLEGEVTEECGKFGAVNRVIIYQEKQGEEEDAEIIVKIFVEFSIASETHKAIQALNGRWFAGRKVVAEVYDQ
Note: unit µM is implicit; provide only the numeric part.

# example entries with known answers
{"COMPOUND": "Clc1ccc2c(c1)N(CCCn1cnc3ccccc31)c1ccccc1S2", "IC50 (µM)": 61.8}
{"COMPOUND": "COc1cc2c(cc1OC)N(CCCN1CCN(CCO)CC1)c1cc(Cl)ccc1S2", "IC50 (µM)": 11.7}
{"COMPOUND": "C=CCCOc1cc2c(cc1OC)N(CCCN1CCN(CCO)CC1)c1cc(Cl)ccc1S2", "IC50 (µM)": 6.6}

Using the record for Clc1ccc2c(c1)N(CCCn1ccnc1)c1ccccc1S2 , report its IC50. 47.8

Using the record for CCCOc1cc2c(cc1OC)N(CCCN1CCN(CCO)CC1)c1cc(Cl)ccc1S2 , report its IC50. 7.2

Using the record for OCCN1CCN(CCCN2c3cc(Cl)ccc3Sc3cc(O)c(O)cc32)CC1 [7,8-dihydroxyperphenazine] , report its IC50. 10.4

Using the record for OCCN1CCN(CCCN2c3ccccc3Sc3ccc(Cl)cc32)CC1 , report its IC50. 96

Data origin: paper PMC7648758
